These entries and their values trace back to ChEMBL document CHEMBL3351888.

# maps each entry to its Ki
Target or system: Neuronal acetylcholine receptor; alpha3/beta4 (Rattus norvegicus, UniProt P04757+P12392)
Sequence (P04757 whole entry): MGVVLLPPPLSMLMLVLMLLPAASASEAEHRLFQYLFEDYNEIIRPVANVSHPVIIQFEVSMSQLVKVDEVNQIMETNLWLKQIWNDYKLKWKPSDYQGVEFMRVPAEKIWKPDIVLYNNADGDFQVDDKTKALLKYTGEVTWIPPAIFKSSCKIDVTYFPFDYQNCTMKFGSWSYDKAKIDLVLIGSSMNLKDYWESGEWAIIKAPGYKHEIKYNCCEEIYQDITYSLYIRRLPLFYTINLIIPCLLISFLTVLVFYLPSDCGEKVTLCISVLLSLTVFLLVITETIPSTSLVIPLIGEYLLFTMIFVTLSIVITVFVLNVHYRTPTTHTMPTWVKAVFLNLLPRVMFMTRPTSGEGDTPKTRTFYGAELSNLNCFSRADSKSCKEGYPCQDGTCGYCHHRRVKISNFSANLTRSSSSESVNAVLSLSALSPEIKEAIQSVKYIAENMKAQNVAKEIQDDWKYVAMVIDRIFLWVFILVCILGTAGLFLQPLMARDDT
Sequence (P12392 whole entry): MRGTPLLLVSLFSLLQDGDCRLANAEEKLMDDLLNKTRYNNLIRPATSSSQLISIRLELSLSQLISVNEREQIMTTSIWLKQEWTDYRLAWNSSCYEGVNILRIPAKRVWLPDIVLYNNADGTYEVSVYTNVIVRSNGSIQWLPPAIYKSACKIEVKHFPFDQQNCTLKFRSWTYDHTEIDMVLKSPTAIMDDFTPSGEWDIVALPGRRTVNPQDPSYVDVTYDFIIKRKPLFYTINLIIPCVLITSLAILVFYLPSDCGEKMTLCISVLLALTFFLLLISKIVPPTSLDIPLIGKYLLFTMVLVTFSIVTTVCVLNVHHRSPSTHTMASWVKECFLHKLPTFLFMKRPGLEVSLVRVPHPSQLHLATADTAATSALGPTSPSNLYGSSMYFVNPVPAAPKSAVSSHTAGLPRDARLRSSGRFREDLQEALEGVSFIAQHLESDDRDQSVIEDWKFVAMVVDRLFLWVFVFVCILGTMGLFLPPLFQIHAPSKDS
Experiment: Displacement of [3H]epibatidine from rat alpha3beta4 nAChR transfected in HEK293 cells after 4 hrs by scintillation count analysis

# example entries with known answers
CN1CCC2=CC[C@H](O)C[C@@H]21 (racemic) ... > 300 µM
CO[C@H]1CC=C2CCN(C)[C@H]2C1 (racemic) ... 100 µM
CN1CCC2=CC[C@H](OCc3ccccc3)C[C@@H]21 (racemic) ... 300 µM

Problem: For the compound CO[C@H]1CC=C2CCN[C@H]2C1 (racemic) , what Ki is on record?
Result: > 300 µM

Problem: For the compound O[C@H]1CC=C2CCN[C@H]2C1 (racemic) , what Ki is on record?
Result: > 300 µM

Problem: For the compound O[C@H]1CC[C@H]2CCN[C@H]2C1 (racemic) , what Ki is on record?
Result: > 300 µM

Problem: For the compound CO[C@H]1C=CC2=CCN(C)[C@H]2C1 (racemic) , what Ki is on record?
Result: > 300 µM

Problem: For the compound CN1CC[C@@H]2CC[C@H](O)C[C@@H]21 (racemic) , what Ki is on record?
Result: > 300 µM

Problem: For the compound CCO[C@H]1CC[C@H]2CCN(C)[C@H]2C1 (racemic) , what Ki is on record?
Result: 300 µM

Problem: For the compound CCO[C@H]1CC=C2CCN(C)[C@H]2C1 (racemic) , what Ki is on record?
Result: > 300 µM

Problem: For the compound CN1CC[C@@H]2CC[C@H](OCc3ccccc3)C[C@@H]21 (racemic) , what Ki is on record?
Result: 100 µM

---

# maps each entry to its pKi
Target or system: Neuronal acetylcholine receptor; alpha4/beta4 (Rattus norvegicus, UniProt P09483+P12392)
Sequence (P09483 whole entry, one chain of several): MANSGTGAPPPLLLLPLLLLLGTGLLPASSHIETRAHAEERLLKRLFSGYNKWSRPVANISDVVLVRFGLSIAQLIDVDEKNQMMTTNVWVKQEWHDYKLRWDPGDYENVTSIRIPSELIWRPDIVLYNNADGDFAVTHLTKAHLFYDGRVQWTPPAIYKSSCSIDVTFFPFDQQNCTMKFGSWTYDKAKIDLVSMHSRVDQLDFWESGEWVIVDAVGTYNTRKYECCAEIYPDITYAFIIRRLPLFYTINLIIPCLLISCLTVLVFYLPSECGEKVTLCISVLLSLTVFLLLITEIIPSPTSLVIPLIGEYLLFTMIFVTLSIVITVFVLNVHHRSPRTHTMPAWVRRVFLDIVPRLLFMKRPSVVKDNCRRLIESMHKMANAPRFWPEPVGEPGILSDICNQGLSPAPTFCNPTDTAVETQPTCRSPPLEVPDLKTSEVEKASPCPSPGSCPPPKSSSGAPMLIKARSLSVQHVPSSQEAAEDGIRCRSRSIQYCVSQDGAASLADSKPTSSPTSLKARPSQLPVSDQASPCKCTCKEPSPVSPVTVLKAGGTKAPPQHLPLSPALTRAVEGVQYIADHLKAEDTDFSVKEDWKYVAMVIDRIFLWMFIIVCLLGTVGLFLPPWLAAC
Experiment: Displacement of [3H]epibatidine from rat alpha4beta4 nAChR transfected in HEK293 cells after 4 hrs by scintillation count analysis
pKi: −log10 of the molar value.

CCO[C@H]1CC=C2CCN(C)[C@H]2C1 (racemic) ... < 3.52
CN1CC[C@@H]2CC[C@H](O)C[C@@H]21 (racemic) ... < 3.52
O[C@H]1CC=C2CCN[C@H]2C1 (racemic) ... < 3.52

Problem: For the compound CN1CC[C@@H]2CC[C@H](OCc3ccccc3)C[C@@H]21 (racemic) , what pKi is on record?
Result: 3.52

---

# maps each entry to its Ki
Target or system: Neuronal acetylcholine receptor; alpha4/beta4 (Rattus norvegicus, UniProt P09483+P12392)
Experiment: Displacement of [3H]epibatidine from rat alpha4beta4 nAChR transfected in HEK293 cells after 4 hrs by scintillation count analysis

# example entries with known answers
O[C@H]1CC[C@H]2CCN[C@H]2C1 (racemic) ... > 300 µM
CO[C@H]1CC=C2CCN3CCC4=C(CC(=O)OC4)[C@]23C1 ... 100 µM
CN1CCC2=CC[C@H](OCc3ccccc3)C[C@@H]21 (racemic) ... 300 µM
COCCO[C@H]1CC=C2CCN(C)[C@H]2C1 (racemic) ... > 300 µM
COCCO[C@H]1CC[C@H]2CCN(C)[C@H]2C1 (racemic) ... > 300 µM
CCO[C@H]1CC[C@H]2CCN(C)[C@H]2C1 (racemic) ... > 300 µM
CO[C@H]1CC=C2CCN(C)[C@H]2C1 (racemic) ... 100 µM
CO[C@H]1CC=C2CCN[C@H]2C1 (racemic) ... > 300 µM

Problem: For the molecule CN1CCC2=CC[C@H](O)C[C@@H]21 (racemic) , what Ki is on record?
Result: > 300 µM

Problem: For the molecule CO[C@H]1C=CC2=CCN(C)[C@H]2C1 (racemic) , what Ki is on record?
Result: > 300 µM

Problem: For the molecule CO[C@H]1CC[C@H]2CCN(C)[C@H]2C1 (racemic) , what Ki is on record?
Result: > 300 µM

---

Target or system: Neuronal acetylcholine receptor; alpha3/beta4 (Rattus norvegicus, UniProt P04757+P12392)
Experiment: Antagonist activity at rat alpha3beta4 nAChR transfected in HEK293 cells by FLIPR membrane potential blue (FMP) assay
pIC50: −log10 of the molar value.
# maps each entry to its pIC50

# example entries with known answers
CN1CC[C@@H]2CC[C@H](OCc3ccccc3)C[C@@H]21 (racemic) ... < 3.52
O[C@H]1CC[C@H]2CCN[C@H]2C1 (racemic) ... < 3.52

Next molecule, pIC50 to be filled in.
Problem: Hello, I am looking for reported pIC50 with Neuronal acetylcholine receptor; alpha3/beta4 (Rattus norvegicus, UniProt P04757+P12392) for CO[C@H]1C=CC2=CCN(C)[C@H]2C1 (racemic) . Could you help?
Result: < 3.52

---

# maps each entry to its Ki
Target or system: Neuronal acetylcholine receptor; alpha4/beta2 (Rattus norvegicus, UniProt P09483+P12390)
Sequence (P09483 whole entry): as the sequence (P09483 whole entry, one chain of several) above
Sequence (P12390 whole entry): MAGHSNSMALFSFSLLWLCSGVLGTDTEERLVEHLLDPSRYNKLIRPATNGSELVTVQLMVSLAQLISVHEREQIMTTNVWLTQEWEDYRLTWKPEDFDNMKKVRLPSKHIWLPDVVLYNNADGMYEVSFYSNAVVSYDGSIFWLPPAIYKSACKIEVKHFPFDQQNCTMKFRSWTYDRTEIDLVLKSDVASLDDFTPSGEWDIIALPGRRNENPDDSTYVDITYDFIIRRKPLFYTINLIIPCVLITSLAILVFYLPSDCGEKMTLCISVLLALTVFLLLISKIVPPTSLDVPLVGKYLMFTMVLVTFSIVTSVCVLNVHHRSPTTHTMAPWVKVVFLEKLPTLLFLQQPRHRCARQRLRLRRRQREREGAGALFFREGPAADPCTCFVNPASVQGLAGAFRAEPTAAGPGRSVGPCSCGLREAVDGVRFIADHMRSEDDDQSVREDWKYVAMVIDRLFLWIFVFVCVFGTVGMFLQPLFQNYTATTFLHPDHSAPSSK
Experiment: Inhibition of rat membrane alpha4beta2 nAChR by [3H]cytisine binding assay
Number first, unit second.

# example entries with known answers
CO[C@H]1CC[C@H]2CCN3CCC4=C(CC(=O)OC4)[C@]23C1 ... 7.4 µM
CO[C@H]1CC=C2CCN3CCC4=C(CC(=O)OC4)[C@]23C1 ... 0.14 µM

Next molecule, Ki to be filled in.
Problem: For the molecule CO[C@H]1C=CC2=CCN3CCC4=C(CC(=O)OC4)[C@]23C1 , what Ki is on record?
Result: 1.1 µM

---

# maps each entry to its Ki
Target or system: Neuronal acetylcholine receptor; alpha4/beta2 (Rattus norvegicus, UniProt P09483+P12390)
Experiment: Displacement of [3H]epibatidine from rat alpha4beta2 nAChR transfected in HEK293 cells after 4 hrs by scintillation count analysis
Type: cell-based
Could you give me the number in µM? Just the number is fine.

# example entries with known answers
CO[C@H]1CC=C2CCN[C@H]2C1 (racemic) ... 300
CO[C@H]1CC=C2CCN3CCC4=C(CC(=O)OC4)[C@]23C1 ... 0.82
CO[C@H]1CC[C@H]2CCN(C)[C@H]2C1 (racemic) ... 300

Problem: For the molecule CO[C@H]1CC=C2CCN(C)[C@H]2C1 (racemic) , what Ki is on record?
Result: 3.4

Problem: For the molecule CN1CC[C@@H]2CC[C@H](OCc3ccccc3)C[C@@H]21 (racemic) , what Ki is on record?
Result: 100

Problem: For the molecule CCO[C@H]1CC=C2CCN(C)[C@H]2C1 (racemic) , what Ki is on record?
Result: 300

Problem: For the molecule CCO[C@H]1CC[C@H]2CCN(C)[C@H]2C1 (racemic) , what Ki is on record?
Result: 300

Problem: For the molecule CN1CCC2=CC[C@H](OCc3ccccc3)C[C@@H]21 (racemic) , what Ki is on record?
Result: 300

Problem: For the molecule CO[C@H]1C=CC2=CCN(C)[C@H]2C1 (racemic) , what Ki is on record?
Result: 30

Problem: For the molecule COCCO[C@H]1CC[C@H]2CCN(C)[C@H]2C1 (racemic) , what Ki is on record?
Result: 300

Problem: For the molecule CN1CCC2=CC[C@H](O)C[C@@H]21 (racemic) , what Ki is on record?
Result: 300

---

# maps each entry to its pKi
Target or system: Neuronal acetylcholine receptor; alpha3/beta4 (Rattus norvegicus, UniProt P04757+P12392)
Experiment: Displacement of [3H]epibatidine from rat alpha3beta4 nAChR transfected in HEK293 cells after 4 hrs by scintillation count analysis
# reply with the number alone; pKi is -log10 of concentration in mol/L

CO[C@H]1CC=C2CCN3CCC4=C(CC(=O)OC4)[C@]23C1 ... 4.00

Next compound, pKi to be filled in.
Problem: For the compound COCCO[C@H]1CC[C@H]2CCN(C)[C@H]2C1 (racemic) , what pKi is on record?
Result: 3.52

---

Target or system: Nicotinic acetylcholine receptor alpha-4/beta-2 (Mus musculus, UniProt Q8R493+Q9ERK7)
Sequence (Q9ERK7 whole entry): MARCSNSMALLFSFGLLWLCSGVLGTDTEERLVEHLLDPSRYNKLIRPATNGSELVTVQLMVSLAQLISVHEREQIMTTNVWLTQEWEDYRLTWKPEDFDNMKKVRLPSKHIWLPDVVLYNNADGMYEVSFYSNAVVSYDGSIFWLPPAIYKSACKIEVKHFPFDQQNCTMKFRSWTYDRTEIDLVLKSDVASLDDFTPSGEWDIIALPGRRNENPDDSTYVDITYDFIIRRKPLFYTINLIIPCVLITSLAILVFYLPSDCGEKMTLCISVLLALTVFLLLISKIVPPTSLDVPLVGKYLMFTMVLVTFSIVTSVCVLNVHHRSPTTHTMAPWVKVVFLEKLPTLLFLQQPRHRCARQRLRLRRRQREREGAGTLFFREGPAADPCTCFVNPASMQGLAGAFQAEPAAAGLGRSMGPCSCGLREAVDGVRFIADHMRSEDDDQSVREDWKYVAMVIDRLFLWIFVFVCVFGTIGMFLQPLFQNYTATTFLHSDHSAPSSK
Sequence (Q8R493 whole entry): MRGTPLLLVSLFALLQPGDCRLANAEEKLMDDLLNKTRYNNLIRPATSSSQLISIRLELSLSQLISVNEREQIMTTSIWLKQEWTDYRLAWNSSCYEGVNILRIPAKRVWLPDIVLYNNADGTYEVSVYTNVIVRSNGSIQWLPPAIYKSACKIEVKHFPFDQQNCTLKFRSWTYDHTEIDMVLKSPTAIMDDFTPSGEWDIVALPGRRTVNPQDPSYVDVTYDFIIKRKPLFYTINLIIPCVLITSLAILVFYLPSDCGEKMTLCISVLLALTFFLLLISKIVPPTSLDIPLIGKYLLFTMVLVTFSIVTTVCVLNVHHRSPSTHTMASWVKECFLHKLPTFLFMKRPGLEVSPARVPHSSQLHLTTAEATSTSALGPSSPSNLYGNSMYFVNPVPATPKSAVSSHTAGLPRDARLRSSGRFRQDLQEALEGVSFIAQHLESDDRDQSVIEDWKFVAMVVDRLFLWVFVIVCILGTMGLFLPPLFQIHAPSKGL
Experiment: Antagonist activity at mouse alpha4beta2 nAChR transfected in HEK293 cells by FLIPR membrane potential blue (FMP) assay
Observation type: IC50

CCO[C@H]1CC=C2CCN(C)[C@H]2C1 (racemic) ... > 300 µM

Problem: For the compound CO[C@H]1CC[C@H]2CCN(C)[C@H]2C1 (racemic) , what IC50 is on record?
Result: > 300 µM

Problem: For the compound COCCO[C@H]1CC=C2CCN(C)[C@H]2C1 (racemic) , what IC50 is on record?
Result: > 300 µM

Problem: For the compound CO[C@H]1CC=C2CCN(C)[C@H]2C1 (racemic) , what IC50 is on record?
Result: 30 µM

Problem: For the compound CO[C@H]1C=CC2=CCN(C)[C@H]2C1 (racemic) , what IC50 is on record?
Result: 100 µM

Problem: For the compound CN1CC[C@@H]2CC[C@H](O)C[C@@H]21 (racemic) , what IC50 is on record?
Result: > 300 µM

Problem: For the compound O[C@H]1CC[C@H]2CCN[C@H]2C1 (racemic) , what IC50 is on record?
Result: > 100 µM

Problem: For the compound COCCO[C@H]1CC[C@H]2CCN(C)[C@H]2C1 (racemic) , what IC50 is on record?
Result: > 300 µM

Problem: For the compound CN1CC[C@@H]2CC[C@H](OCc3ccccc3)C[C@@H]21 (racemic) , what IC50 is on record?
Result: > 300 µM

Problem: For the compound CN1CCC2=CC[C@H](O)C[C@@H]21 (racemic) , what IC50 is on record?
Result: > 100 µM

Problem: For the compound CCO[C@H]1CC[C@H]2CCN(C)[C@H]2C1 (racemic) , what IC50 is on record?
Result: > 300 µM

Problem: For the compound CN1CCC2=CC[C@H](OCc3ccccc3)C[C@@H]21 (racemic) , what IC50 is on record?
Result: > 300 µM

Problem: For the compound CO[C@H]1CC=C2CCN3CCC4=C(CC(=O)OC4)[C@]23C1 , what IC50 is on record?
Result: 1.2 µM

Problem: For the compound O[C@H]1CC=C2CCN[C@H]2C1 (racemic) , what IC50 is on record?
Result: > 300 µM

Problem: For the compound CO[C@H]1CC=C2CCN[C@H]2C1 (racemic) , what IC50 is on record?
Result: 100 µM
